tested.target: PDE3 (cGMP-inhibited) (Homo sapiens)
Construct: investigated in homogenates of human platelets; from tissue; host or cells: homogenates of human platelets
Sequence (Q14432 whole entry): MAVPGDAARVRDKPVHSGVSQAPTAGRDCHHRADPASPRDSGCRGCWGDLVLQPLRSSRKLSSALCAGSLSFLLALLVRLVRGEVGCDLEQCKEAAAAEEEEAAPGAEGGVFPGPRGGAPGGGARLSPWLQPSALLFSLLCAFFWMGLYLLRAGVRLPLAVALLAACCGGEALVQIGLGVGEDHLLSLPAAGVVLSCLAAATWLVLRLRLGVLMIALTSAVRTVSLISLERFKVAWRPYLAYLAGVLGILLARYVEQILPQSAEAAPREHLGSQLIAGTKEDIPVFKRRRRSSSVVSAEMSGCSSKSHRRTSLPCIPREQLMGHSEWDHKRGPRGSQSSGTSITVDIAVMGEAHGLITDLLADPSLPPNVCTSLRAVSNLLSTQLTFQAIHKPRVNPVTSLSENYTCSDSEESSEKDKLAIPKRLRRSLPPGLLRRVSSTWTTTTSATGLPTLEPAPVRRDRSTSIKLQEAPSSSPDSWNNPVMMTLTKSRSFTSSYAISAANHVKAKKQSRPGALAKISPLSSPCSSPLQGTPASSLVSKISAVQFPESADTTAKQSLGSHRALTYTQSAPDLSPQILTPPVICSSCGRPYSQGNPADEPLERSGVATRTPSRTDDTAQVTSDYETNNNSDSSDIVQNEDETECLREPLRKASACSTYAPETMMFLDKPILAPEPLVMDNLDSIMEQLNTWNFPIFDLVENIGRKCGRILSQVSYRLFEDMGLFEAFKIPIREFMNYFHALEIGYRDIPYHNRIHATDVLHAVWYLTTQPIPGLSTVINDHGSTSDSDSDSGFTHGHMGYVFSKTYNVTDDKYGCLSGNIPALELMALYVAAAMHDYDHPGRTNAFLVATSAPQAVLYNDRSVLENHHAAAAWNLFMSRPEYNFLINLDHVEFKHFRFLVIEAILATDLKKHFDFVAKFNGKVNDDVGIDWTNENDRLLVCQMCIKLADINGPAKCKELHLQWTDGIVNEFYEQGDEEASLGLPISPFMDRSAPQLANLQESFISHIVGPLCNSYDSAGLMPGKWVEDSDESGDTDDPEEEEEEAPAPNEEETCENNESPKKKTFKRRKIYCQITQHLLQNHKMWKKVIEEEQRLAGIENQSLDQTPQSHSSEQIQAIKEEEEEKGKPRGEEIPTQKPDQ
assay.procedure: Inhibition of PDE3 activity, Method A (homogenates of human platelets)
Assay type: biochemical
assay.setup: read-out: PDE3 Inhibition [measured as −logIC50 (mol/l)] (converted)
Structures can show the parent of a compound that is named as a salt.
property.name: IC50 (nM)
// note: answer is a bare numeric in nM

Take a look at these entries with their results.
COc1ccc(C2=NN(C3CCN(S(C)(=O)=O)CC3)C(=O)CC2)cc1OC [Compound 12] :: 251
COc1ccc(C2=NN(C3CCN(S(=O)(=O)c4ccc(C)cc4)CC3)C(=O)CC2)cc1OC [Compound 11] :: 501
COc1ccc(C2=NN(C3CCN(S(=O)(=O)c4ccccc4C#N)CC3)C(=O)CC2)cc1OC [Compound 18] :: 79.4
COc1ccc(C2=NN(C3CCN(C(C)=O)CC3)C(=O)CC2C)cc1OC (stereo not drawn) [Compound 4] :: 1740
COc1ccc(C2=NN(C3CCN(S(=O)(=O)c4cccc5c(N(C)C)cccc45)CC3)C(=O)CC2)cc1OC [Compound 9] :: 245
COc1ccc(C2=NN(C3CCN(S(=O)(=O)c4ccccc4OC(F)(F)F)CC3)C(=O)CC2)cc1OC [Compound 21] :: 100
COc1ccc(C2=NN(C3CCN(Cc4cccnc4)CC3)C(=O)CC2C)cc1OC.Cl.Cl (stereo not drawn) [Compound 6, dihydrochloride] :: 5890
COc1ccc(C2=NN(C3CCN(C(=O)N4CCOCC4)CC3)C(=O)CC2C)cc1OC (stereo not drawn) [Compound 5] :: 1780

Param item: COc1ccc(C2=NN(C3CCN(S(=O)(=O)c4ccccc4F)CC3)C(=O)CC2)cc1OC [Compound 20] ; param system: PDE3 (cGMP-inhibited) (Homo sapiens); output IC50: 158

Param item: COc1ccc(C2=NN(C3CCN(CC(=O)N4CCOCC4)CC3)C(=O)CC2)cc1OC [Compound 10, hydrochloride] ; param system: PDE3 (cGMP-inhibited) (Homo sapiens); output IC50: 4470

Param item: COc1ccc(C2=NN(C3CCN(S(=O)(=O)Cc4ccccc4)CC3)C(=O)CC2)cc1OC [Compound 14] ; param system: PDE3 (cGMP-inhibited) (Homo sapiens); output IC50: 251

Param item: COc1ccc(S(=O)(=O)N2CCC(N3N=C(c4ccc(OC)c(OC)c4)CCC3=O)CC2)cc1 [Compound 15] ; param system: PDE3 (cGMP-inhibited) (Homo sapiens); output IC50: 501

====

We begin with a simple list: items and their reported IC50.
tested.target: PDE3A1 (Homo sapiens)
Construct: The whole ORF was subcloned into pBacPak9 (Clontech, Palo Alto) using EcoRi; made in house; host or cells: baculovirus (pBacPak9), SF21 insect cells (virus made in SF9); 1000 x g supernatant of the homogenate
Sequence (Q14432 whole entry): as above
assay.procedure: Inhibition of recombinant PDE3A1, Method B (SPA test)
Format: biochemical
assay.setup: 0.5 μM cAMP, read-out: PDE3 Inhibition [measured as −logIC50 (mol/l)] (converted)
Counter-ions that a name gives are not always drawn.
// note: answer is a bare numeric in µM

COc1ccc(C2=NN(C3CCN(C(=O)CN4CCN(C(c5ccccc5)c5ccccc5)CC4)CC3)C(=O)CC2)cc1OC.Cl.Cl [Compound 31, dihydrochloride] :: 3.98
COc1ccc(C2=NN(C3CCN(C(=O)c4c(Cl)cc(Cl)cc4Cl)CC3)C(=O)CC2)cc1OC :: 0.0158
COc1ccc(C2=NN(C3CCN(C(=O)c4ccccc4)CC3)C(=O)CC2)cc1OC :: 0.126

// IC50 value for COc1ccc(C2=NN(C3CCN(C(=O)CN4CCN(c5ccncc5)CC4)CC3)C(=O)CC2)cc1OC [Compound 29, dihydrochloride] : 3.16
